- test_details: Plasma concentrations after administration to mice
- Type: in vivo
- assay_context: mouse, 70 μmol/kg, mean sample time 45.4 min, read-out: Geometric Mean Plasma Concentration
experimental_endpoint: concentration at 45.4 min (µM)

chemical_structure=Cc1cc(-c2nc3cc(F)ccc3s2)ccc1N experimental_endpoint="concentration at 45.4 min" measured_result=3.41

###

- test_details: Plasma concentrations after administration to mice
- Format: in vivo
- assay_context: mouse, 70 μmol/kg, mean sample time 240.0 min, read-out: Geometric Mean Plasma Concentration
experimental_endpoint: concentration at 240 min (µM)

chemical_structure=Cc1cc(-c2nc3cc(F)ccc3s2)ccc1N unit_of_measurement=µM measured_result=1
